Measured residual activity, listed per entry for reference.
# target desc: Solute carrier organic anion transporter family member 1B3 (Homo sapiens)
# Sequence (Q9NPD5 whole entry): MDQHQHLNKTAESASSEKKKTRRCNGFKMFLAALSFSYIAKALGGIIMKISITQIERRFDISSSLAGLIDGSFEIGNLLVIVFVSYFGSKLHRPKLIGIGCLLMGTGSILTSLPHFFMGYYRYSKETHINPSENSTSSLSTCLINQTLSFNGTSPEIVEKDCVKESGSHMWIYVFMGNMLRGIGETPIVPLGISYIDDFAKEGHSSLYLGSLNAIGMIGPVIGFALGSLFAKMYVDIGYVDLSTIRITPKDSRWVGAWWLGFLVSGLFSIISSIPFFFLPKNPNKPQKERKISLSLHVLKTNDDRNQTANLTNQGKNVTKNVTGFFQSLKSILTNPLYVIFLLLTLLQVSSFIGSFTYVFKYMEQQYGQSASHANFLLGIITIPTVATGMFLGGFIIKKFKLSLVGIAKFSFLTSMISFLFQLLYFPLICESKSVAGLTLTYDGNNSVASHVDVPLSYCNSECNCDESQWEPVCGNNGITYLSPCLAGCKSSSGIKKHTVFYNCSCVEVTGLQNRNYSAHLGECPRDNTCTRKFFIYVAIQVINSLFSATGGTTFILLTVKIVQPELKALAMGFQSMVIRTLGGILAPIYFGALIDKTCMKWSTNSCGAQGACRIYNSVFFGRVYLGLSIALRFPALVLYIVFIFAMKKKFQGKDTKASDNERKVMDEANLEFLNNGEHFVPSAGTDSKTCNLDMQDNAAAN
# experimental conditions: chinese hamster, cho, 10 µM
Residues, ends and D or L forms follow the SMILES beside them.
assay metric: residual activity (%)

compound	target desc	assay metric	experimental result
CC1(O)CC2C(CC1O)C2(C)C (stereo not drawn) [3,4-DIHYDROXYCARANE]	Solute carrier organic anion transporter family member 1B3 (Homo sapiens)	residual activity	98.2
Cc1c(OCC(F)(F)F)ccnc1C[S+]([O-])c1nc2ccccc2[nH]1 (stereo not drawn)	Solute carrier organic anion transporter family member 1B3 (Homo sapiens)	residual activity	100.5
CN1CCN(CC(=O)N2c3ccccc3C(=O)Nc3cccnc32)CC1.Cl.Cl [PIRENZEPINE HYDROCHLORIDE]	Solute carrier organic anion transporter family member 1B3 (Homo sapiens)	residual activity	100.6
NCCCC[C@H](NC(=O)[C@H](Cc1ccc(O)cc1)NC(=O)[C@@H](N)CCCCN)C(=O)O [LYSYL-TYROSYL-LYSINE ACETATE] (H-Lys-Tyr-Lys-OH)	Solute carrier organic anion transporter family member 1B3 (Homo sapiens)	residual activity	124.3
CC(=O)O[C@@H]1C[C@@H]2C(C)(C)C(=O)C=C[C@@]2(C)[C@@H]2CC[C@@]3(C)C(=CC(=O)O[C@@H]3c3ccoc3)[C@@]12C	Solute carrier organic anion transporter family member 1B3 (Homo sapiens)	residual activity	22.73
CCOC(=O)c1ccc(N)cc1	Solute carrier organic anion transporter family member 1B3 (Homo sapiens)	residual activity	100.6
CCOC(=O)n1ccn(C)c1=S	Solute carrier organic anion transporter family member 1B3 (Homo sapiens)	residual activity	101.8
CCOc1ccc2c(c1)C(C)=CC(C)(C)N2	Solute carrier organic anion transporter family member 1B3 (Homo sapiens)	residual activity	119.7
CCCCCC[C@H]1C(=O)O[C@H](C)[C@H](NC(=O)c2cccc(NC=O)c2O)C(=O)O[C@@H](C)[C@@H]1OC(=O)CC(C)C [ANTIMYCIN A]	Solute carrier organic anion transporter family member 1B3 (Homo sapiens)	residual activity	28.62
CN(C)CCC=C1c2ccccc2CCc2ccccc21.Cl [AMITRIPTYLINE HYDROCHLORIDE]	Solute carrier organic anion transporter family member 1B3 (Homo sapiens)	residual activity	80.45
Cc1ccsc1/C=C/C1=NCCCN1C.O=C(O)CC(O)(CC(=O)O)C(=O)O [MORANTEL CITRATE]	Solute carrier organic anion transporter family member 1B3 (Homo sapiens)	residual activity	103.6
Cc1ccccc1OCC(O)CO (stereo not drawn)	Solute carrier organic anion transporter family member 1B3 (Homo sapiens)	residual activity	107.5
CC(=O)N1CCCC1C(=O)O (stereo not drawn)	Solute carrier organic anion transporter family member 1B3 (Homo sapiens)	residual activity	109.9
CCC(Cc1c(I)cc(I)c(N)c1I)C(=O)O (stereo not drawn)	Solute carrier organic anion transporter family member 1B3 (Homo sapiens)	residual activity	59.57
CCC(=O)Nc1ccc(Cl)c(Cl)c1	Solute carrier organic anion transporter family member 1B3 (Homo sapiens)	residual activity	115.2
Cn1cc[nH]c1=S	Solute carrier organic anion transporter family member 1B3 (Homo sapiens)	residual activity	105.6
Oc1c(I)cc(I)c2cccnc12	Solute carrier organic anion transporter family member 1B3 (Homo sapiens)	residual activity	87.46
COc1ccc2[nH]cc(CCNC(C)=O)c2c1	Solute carrier organic anion transporter family member 1B3 (Homo sapiens)	residual activity	91.63
COc1nc(NC(C)C)nc(NC(C)C)n1	Solute carrier organic anion transporter family member 1B3 (Homo sapiens)	residual activity	102.5
CC[C@@]1(O)C[C@H](O[C@H]2C[C@H](N(C)C)[C@H](O)[C@H](C)O2)c2c(cc3c(c2O)C(=O)c2c(O)ccc(O)c2C3=O)[C@H]1C(=O)OC	Solute carrier organic anion transporter family member 1B3 (Homo sapiens)	residual activity	81.89
CN1CCc2c(c3ccccc3n2Cc2ccccc2)C1.CN1CCc2c(c3ccccc3n2Cc2ccccc2)C1.O=S(=O)(O)c1cccc2c(S(=O)(=O)O)cccc12	Solute carrier organic anion transporter family member 1B3 (Homo sapiens)	residual activity	77.15
CC[C@H]1OC(=O)[C@H](C)[C@@H](O[C@H]2C[C@@](C)(OC)[C@@H](O)[C@H](C)O2)[C@H](C)[C@@H](O[C@@H]2O[C@H](C)C[C@H](N(C)C)[C@H]2O)[C@](C)(O)C[C@@H](C)[C@@H]2N[C@@H](COCCOC)O[C@H]([C@H]2C)[C@]1(C)O	Solute carrier organic anion transporter family member 1B3 (Homo sapiens)	residual activity	95.43
CCn1cc(C(=O)O)c(=O)c2cnc(N3CCCC3)nc21	Solute carrier organic anion transporter family member 1B3 (Homo sapiens)	residual activity	101
CCC(=O)OC1[C@@H]2CC3=C4CC(=O)O[C@@H](c5ccoc5)[C@]4(C)CCC3[C@@](C)(C2=O)[C@@H](CC(=O)OC)C1(C)C (stereo partly drawn)	Solute carrier organic anion transporter family member 1B3 (Homo sapiens)	residual activity	67.18
CCOc1cccc(C(=O)c2ccc(O)c(O)c2O)c1	Solute carrier organic anion transporter family member 1B3 (Homo sapiens)	residual activity	108.6
CC(=O)c1ccc[nH]1	Solute carrier organic anion transporter family member 1B3 (Homo sapiens)	residual activity	98.29
CC1(C)C(=O)[C@@H]2O[C@@H]2[C@]2(C)[C@H]3CC[C@@]4(C)[C@H](c5ccoc5)OC(=O)[C@H]5O[C@]54[C@]3(C)[C@H](O)C[C@@H]12	Solute carrier organic anion transporter family member 1B3 (Homo sapiens)	residual activity	21.3
CC(C)[N+](C)(CCOC(=O)C1c2ccccc2Oc2ccccc21)C(C)C.[Br-] [PROPANTHELINE BROMIDE]	Solute carrier organic anion transporter family member 1B3 (Homo sapiens)	residual activity	110.4
N[C@@H](Cc1c[nH]c2ccccc12)C(=O)O	Solute carrier organic anion transporter family member 1B3 (Homo sapiens)	residual activity	97.09
Clc1ccc(C(c2ccc(Cl)cc2)C(Cl)(Cl)Cl)cc1	Solute carrier organic anion transporter family member 1B3 (Homo sapiens)	residual activity	116.2
COc1ccc(C(=O)CC(=O)c2ccc(C(C)(C)C)cc2)cc1	Solute carrier organic anion transporter family member 1B3 (Homo sapiens)	residual activity	103
COc1ccc2cc1Oc1ccc(cc1)C[C@H]1c3c(cc4c(c3Oc3cc5c(cc3OC)CCN(C)[C@@H]5C2)OCO4)CCN1C	Solute carrier organic anion transporter family member 1B3 (Homo sapiens)	residual activity	125.1
COc1c2c(cc3c1OCO3)[C@]13C=C[C@H](OC)C[C@H]1N(C2)C[C@@H]3O	Solute carrier organic anion transporter family member 1B3 (Homo sapiens)	residual activity	88.47

Numbers sourced from ChEMBL document CHEMBL3039007.
